- PROTOCOL DETAILS: Metabolic stability and intrinsic clearance in human liver microsomes (MICS)
- Type: in vitro ADME
- STUDY CONDITIONS: pH 7.4; human liver microsomes 0.5 mg/mL, 1 μM compound; read-out: intrinsic clearance in human MICS
Recorded microsomal CLint at 1 μM, one value per entry.

// worked examples, microsomal CLint at 1 μM included
COMPOUND	microsomal CLint at 1 μM
Cc1cc([C@@H](C)Oc2ccccc2-c2noc(=O)[nH]2)c2oc(-c3ccccc3)c(C)c(=O)c2c1 [Example 4]	< 50 µL/min/mg
Cc1cc([C@@H](C)Oc2ccc(Cl)nc2NS(C)(=O)=O)c2oc(-c3cnn(C)c3)c(C)c(=O)c2c1 [Example 149A]	< 50 µL/min/mg

Give its microsomal CLint at 1 μM value. Item: Cc1cc([C@@H](C)Oc2ccc(Cl)nc2C(=O)NS(C)(=O)=O)c2oc(-c3ccccc3)c(C)c(=O)c2c1 [Example 6]
< 50 µL/min/mg

Give its microsomal CLint at 1 μM value. Item: Cc1cc([C@@H](C)Oc2cccc(F)c2-c2noc(=O)[nH]2)c2oc(-c3ccccc3)c(C)c(=O)c2c1 [Example 5]
< 50 µL/min/mg

Give its microsomal CLint at 1 μM value. Item: Cc1cc([C@@H](C)Oc2ccc(Cl)nc2-c2noc(=O)[nH]2)c2oc(-c3ccccc3)c(C)c(=O)c2c1 [Example 2]
< 50 µL/min/mg

Give its microsomal CLint at 1 μM value. Item: Cc1cc([C@@H](C)Oc2cccnc2-c2noc(=O)[nH]2)c2oc(-c3ccccc3)c(C)c(=O)c2c1 [Example 3]
< 50 µL/min/mg
